Molecular target: Troponin I, cardiac muscle (Homo sapiens) + Troponin T, cardiac muscle (Homo sapiens) + Troponin C, slow skeletal and cardiac muscles (Homo sapiens) (UniProt P19429+P45379+P63316)
Test: cardiac RTF calcium sensitivity activators, confirmation, biochemical, IANBD-TnC fluorescence, triplicate (AID 504383);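 also: 0% = DMSO at 0.472 mM calcium and 100% = DMSO at 2.9 mM calcium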
Conditions: IANBD-labeled cardiac RTF, Ca2+ sensitivity fluorescence; at 7.2 µM; active compounds read high; scaled from EC20 to saturating calcium; tested at EC20 calcium, 0.472 mM
Screen size: about 2,500 compounds; about 1,200 (48%) were called active. The set was probably picked from earlier hits. The list shows a part of the results.
observable: activation

IN: Name the recorded activation for Cc1ccc(NC(=O)CN(C)c2ccc(S(=O)(=O)N3CCCC3)cn2)cc1 .
OUT: 94.3% (active)

IN: Bench note: what activation did CCN(CC)c1ccc2cc(C(C)=O)c(=O)oc2c1 show?
OUT: 0.78% (inactive)

IN: Entry CCN(CC)c1ccc2c(Cl)c(Br)c(=O)oc2c1 : reported activation = ?
OUT: 8.56% (inactive)

IN: // lookup activation for CCN(CC)c1ccc2cc(S(=O)(=O)c3ccc(C)cc3)c(=O)oc2c1
OUT: 32.5% (active)

IN: # activation lookup, item CCN(CC)c1ccc2c(c1)oc(=O)c1c(Cl)cc(=O)oc12
OUT: 63.5% (active)

IN: Given the entry COc1ccccc1CNC(=O)COC(=O)c1cccc(S(=O)(=O)N2CCOCC2)c1 , report its measured activation.
OUT: 6.73% (inactive)

* * *

Target: Troponin I, cardiac muscle (Homo sapiens) + Troponin T, cardiac muscle (Homo sapiens) + Troponin C, slow skeletal and cardiac muscles (Homo sapiens) (UniProt P19429+P45379+P63316)
Test: cardiac RTF calcium sensitivity activators, confirmation, biochemical, IANBD-TnC fluorescence, triplicate (AID 504383);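 also: 0% = DMSO at 0.472 mM calcium and 100% = DMSO at 2.9 mM calcium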
Conditions: IANBD-labeled cardiac RTF, Ca2+ sensitivity fluorescence; at 7.2 µM; active compounds read high; scaled from EC20 to saturating calcium; tested at EC20 calcium, 0.472 mM
Screen size: about 2,500 compounds; about 1,200 (48%) were called active. The set was probably picked from earlier hits. Some of the results follow.
The threshold is inclusive: activation of exactly 10% counts as condition met; values below receive condition not met.

Take a look at these entries with their results.
compound	cat
Cn1cc(/C=C/c2cc[n+](C)cc2)c2cc(Cl)ccc21	condition not met
CCCCCCc1cc2cc(-c3nnc(-c4ccccc4O)o3)c(=O)oc2cc1O	condition met
C=CCn1cc(/C=C/c2cc[n+](C)cc2)c2ccccc21	condition not met
CCn1cc(/C=C/c2cc[n+](C)cc2)c2ccccc21	condition met

IN: Check if activation >= 10% (inclusive). Item: Cc1cc(S(=O)(=O)N2CCCC(C(=O)Nc3ccc(C(=O)O)cc3)C2)ccc1Cl (stereo unspecified)
OUT: condition met

IN: Determine whether this compound has activation no lower than 10%: COc1ccc2nc(-c3ccccn3)[nH]c2c1
OUT: condition met

IN: Answer whether activation of COc1ccc(S(=O)(=O)N2CN(Cc3ccco3)c3nc4ccccc4nc32)cc1 is greater than or equal to 10%.
OUT: condition met

IN: Is it the case that COc1cccc(CN2CCNC(=O)C2CC(=O)N(C)Cc2cnccn2)c1OC (stereo unspecified) has activation reaching or exceeding 10%?
OUT: condition not met

IN: Please indicate if the recorded activation for CC(=O)C1=C(C)N(CC2CC2)C(=O)N[C@H]1c1ccc(Br)cc1 meets or exceeds 10%.
OUT: condition met

IN: Decide: is the reported value of activation for COCCCn1c(=O)/c(=C\c2cccc(OC)c2OC)s/c1=C(/C#N)C(=O)Nc1ccc(C(=O)O)cc1 equal to or greater than 10%?
OUT: condition met

IN: Answer whether activation of C=CCn1c(C)c(/C=C/c2cc[n+](C)cc2)c2ccccc21 is greater than or equal to 10%.
OUT: condition met
